Test: BSK_LPS_PGE2: BioMAP Diversity Plus: LPS Assay for Prostaglandin E2 (PGE2) Biomarker Activity (AID 2283082)
Details: primary human HUVEC with PBMC; actives raise or lower the signal
Active and inactive are the calls of the source. The calls were made as follows: active = hit-call score of the fitted dose curve at least 0.9, where 1 is the maximum; inactive = score below 0.9.
Mark one answer only. Choices: active, inactive

compound	class
c1ccc(NNc2ccccc2)cc1	active
Cc1cccc(N)c1N	active
CCCCCCCCOC(=O)c1ccc(C(=O)OCCCCCCCC)c(C(=O)OCCCCCCCC)c1	inactive
CCNS(=O)(=O)C(F)(F)C(F)(F)C(F)(F)C(F)(F)C(F)(F)C(F)(F)C(F)(F)C(F)(F)F	inactive
Clc1ccccc1Cl	inactive
COC(=O)Nc1nc2ccccc2[nH]1	inactive
CC(C)(C)OOC(=O)c1ccccc1	inactive
OCCCl	inactive
CN(C)c1ccc(C(=O)c2ccc(N(C)C)cc2)cc1	active
CC(C)(OOC(C)(C)c1ccccc1)c1ccccc1	inactive

Incoming: Please state the recorded outcome for this compound: CCCCCOC(=O)c1ccccc1C(=O)OCCCCC
Outgoing: active

Incoming: Please state the recorded outcome for this compound: Oc1ccccc1Cl
Outgoing: inactive

Incoming: Please state the recorded outcome for this compound: ClCCOCCCl
Outgoing: inactive

Incoming: Please state the recorded outcome for this compound: C[N+](C)(C)CC1CO1 (centres undefined)
Outgoing: inactive

Incoming: Please state the recorded outcome for this compound: OCCOCCO
Outgoing: inactive

Incoming: Please state the recorded outcome for this compound: O=C1CCCO1
Outgoing: inactive

====

Target: Androgen Receptor/SRC-1 Co-activator, AR (gene 367)
Experiment: OT_AR_ARSRC1_0960: Odyssey Thera (OT) 16-hour HEK293T Protein-Complementation Assay for Androgen Receptor/SRC-1 Co-activator (AID 2283353);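 also: actives raise the signal above DMSO so potency reflects increased AR and SRC-1 complex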
The source made the active and inactive calls. Rule for the calls: active = hit-call score of the fitted dose curve at least 0.9, where 1 is the maximum; inconclusive = response in the unintended direction; inactive = score below 0.9.
Mark one answer only. Choices: TRUE (active), FALSE (inactive)

compound	class
Nc1ccc(Cl)cc1N	FALSE
CO[C@@H]1[C@H](OC(=O)NC(=O)CCl)CC[C@]2(CO2)[C@H]1[C@@]1(C)O[C@@H]1CC=C(C)C	TRUE
CNC(=O)Oc1cccc2c1OC(C)(C)C2	FALSE
Cc1cc(N=Nc2ccccc2C)ccc1N	TRUE
CCCCC(CC)COC(=O)c1ccc(C(=O)OCC(CC)CCCC)c(C(=O)OCC(CC)CCCC)c1 (centres undefined)	FALSE

Incoming: Please state the recorded outcome for this compound: O=C(Nc1ccccc1)c1ccccc1I
Outgoing: FALSE

Incoming: Please state the recorded outcome for this compound: O=[N+]([O-])C(Br)(CO)CO
Outgoing: TRUE

Incoming: Please state the recorded outcome for this compound: CC(C)(O)c1cnn2c(-c3ccc(F)c(-c4c(F)cccc4C#N)c3)cnc2n1
Outgoing: TRUE

Incoming: Please state the recorded outcome for this compound: O=C1CCCO1
Outgoing: FALSE

====

Assay: BSK_3C_SRB: Viability Assessment in the BioMAP Diversity Plus: 3C Assay (AID 2283023);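 also: cells read 24 h after compound dosing; fitted both ways against DMSO so a hit may be signal rise or drop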
Settings: primary human endothelial cells (HUVEC)
Active and inactive are the calls of the source. Rule for the calls: active = hit-call score of the fitted dose curve at least 0.9, where 1 is the maximum; inactive = score below 0.9.
measured-metric: AC50

In the examples that follow, each entry is paired with its recorded AC50.
molecule	endpoint-result
CCCCCOC(=O)c1ccccc1C(=O)OCCCCC	32.2 µM (active)
[As]#[In]	inactive
CN(C)c1ccc(C(=O)c2ccc(N(C)C)cc2)cc1	3.55 µM (active)
Cc1ccc(N)cc1	inactive
Cc1ccc([N+](=O)[O-])cc1	inactive
CC(C)N(Cc1ccccc1)C(=O)C(C)(C)C	inactive
CN(C)[C@@H]1C(=O)C(C(N)=O)=C(O)[C@@]2(O)C(=O)C3=C(O)c4c(O)cccc4[C@@](C)(O)[C@H]3C[C@@H]12	inactive
Cc1ccc(N=C=O)cc1N=C=O	inactive
CC(C)(C)C(O)(CCc1ccc(Cl)cc1)Cn1cncn1 (stereo not given)	inactive
CCOc1cccc(C2(N3CCN(c4ccccc4)CC3)CCC(C)CC2)c1 (stereo not given)	inactive

Incoming: State the recorded AC50 for this entry: CCCSC(=O)N(CCC)CCC
Outgoing: inactive

Incoming: State the recorded AC50 for this entry: Nc1cc(Cl)cc(C(=O)O)c1Cl
Outgoing: inactive

Incoming: State the recorded AC50 for this entry: CCCCCCCCn1sccc1=O
Outgoing: 20.8 µM (active)

Incoming: State the recorded AC50 for this entry: c1ccc2c(c1)oc1ccccc12
Outgoing: inactive

Incoming: State the recorded AC50 for this entry: N#CC(Br)(Br)C(N)=O
Outgoing: inactive

Incoming: State the recorded AC50 for this entry: COP(=S)(OC)SCN1C(=O)c2ccccc2C1=O
Outgoing: inactive

Incoming: State the recorded AC50 for this entry: [Cl-].[Cl-].[Hg+2]
Outgoing: 30.3 µM (active)

Incoming: State the recorded AC50 for this entry: O=C(O)C1C2CCC(O2)C1C(=O)O (stereo not given)
Outgoing: 24.4 µM (active)

Incoming: State the recorded AC50 for this entry: c1ccc(N=Nc2ccccc2)cc1
Outgoing: inactive

Incoming: State the recorded AC50 for this entry: C1=Cc2cccc3cccc1c23
Outgoing: inactive

Incoming: State the recorded AC50 for this entry: C[N+](C)(C)CC1CO1 (stereo not given)
Outgoing: inactive

Incoming: State the recorded AC50 for this entry: CCC[CH2][Sn]([Cl])([CH2]CCC)[CH2]CCC
Outgoing: 0.148 µM (active)

Incoming: State the recorded AC50 for this entry: [O-][Cl+]O
Outgoing: inactive

Incoming: State the recorded AC50 for this entry: CO[C@@H]1[C@H](OC(=O)NC(=O)CCl)CC[C@]2(CO2)[C@H]1[C@@]1(C)O[C@@H]1CC=C(C)C
Outgoing: inactive

Incoming: State the recorded AC50 for this entry: CCCCOC(=O)c1ccccc1C(=O)OCc1ccccc1
Outgoing: inactive
